# assayedTarget: IGF-1 receptor on the cells of the PathHunter IGF1R Functional Assay (DiscoverX) (UniProt P08069 31-1367)
# Sequence (P08069 31-1367): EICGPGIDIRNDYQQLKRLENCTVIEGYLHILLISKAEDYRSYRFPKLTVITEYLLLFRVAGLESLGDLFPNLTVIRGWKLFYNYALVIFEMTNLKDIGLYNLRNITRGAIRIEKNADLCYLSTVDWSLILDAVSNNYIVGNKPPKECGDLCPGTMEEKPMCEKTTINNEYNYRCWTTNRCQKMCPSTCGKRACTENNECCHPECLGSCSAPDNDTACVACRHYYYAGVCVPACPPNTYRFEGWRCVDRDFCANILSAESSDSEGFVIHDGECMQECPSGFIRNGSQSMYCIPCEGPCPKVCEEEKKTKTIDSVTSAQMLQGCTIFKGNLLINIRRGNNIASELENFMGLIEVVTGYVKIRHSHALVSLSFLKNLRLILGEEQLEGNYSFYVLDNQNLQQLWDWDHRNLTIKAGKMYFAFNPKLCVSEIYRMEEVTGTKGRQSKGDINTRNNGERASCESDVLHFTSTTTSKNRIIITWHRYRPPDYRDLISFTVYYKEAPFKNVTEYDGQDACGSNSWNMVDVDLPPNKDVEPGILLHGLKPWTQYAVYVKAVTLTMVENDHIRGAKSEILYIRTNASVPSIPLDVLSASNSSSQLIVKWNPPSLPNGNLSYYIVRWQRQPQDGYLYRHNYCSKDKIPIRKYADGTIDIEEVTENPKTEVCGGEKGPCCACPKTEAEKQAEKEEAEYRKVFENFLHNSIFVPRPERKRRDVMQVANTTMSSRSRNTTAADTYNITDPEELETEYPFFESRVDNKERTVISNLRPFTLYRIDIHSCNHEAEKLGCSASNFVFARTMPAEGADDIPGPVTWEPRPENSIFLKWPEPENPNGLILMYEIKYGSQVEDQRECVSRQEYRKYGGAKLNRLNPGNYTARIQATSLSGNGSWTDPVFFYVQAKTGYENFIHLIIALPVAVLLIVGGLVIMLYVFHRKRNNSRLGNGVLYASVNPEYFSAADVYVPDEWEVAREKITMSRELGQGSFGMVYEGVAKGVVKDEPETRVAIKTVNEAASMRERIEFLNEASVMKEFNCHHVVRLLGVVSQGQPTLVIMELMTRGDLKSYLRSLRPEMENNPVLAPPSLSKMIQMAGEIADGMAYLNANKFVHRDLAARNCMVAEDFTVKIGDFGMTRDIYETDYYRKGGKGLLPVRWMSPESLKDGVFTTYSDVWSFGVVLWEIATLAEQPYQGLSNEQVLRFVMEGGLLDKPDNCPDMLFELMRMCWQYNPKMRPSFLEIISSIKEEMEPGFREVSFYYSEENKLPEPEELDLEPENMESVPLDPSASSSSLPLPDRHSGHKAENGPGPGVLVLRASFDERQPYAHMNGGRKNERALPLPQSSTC
# protocolText: cell-based or functional assay
Field: Fluorescence intensity (12.5 nM) (RLU), PathHunter. Provide a value for each of the binders that follow.
Give just the numeric value; RLU need not be written.

[ask] Find the recorded Fluorescence intensity (12.5 nM) (RLU), PathHunter belonging to FW1_var14 antibody (antibody, V domains shown) VH: QVQLVQSGAEVKKPGASVKVSCKASGYTFTSYWMHWVRQAPGQGLEWMGETNPSNSVTNYAQKFQGRVTLTVDTSTSTAYMELSSLRSEDTATYYCTIGRGRGFAYWGQGTLVTVSS VL: DIQMTQSPSSVSASVGDRVTITCRASQNINFWLSWYQQKPGKAPRLLIYKASNLHTGVPSRFSGSGSGTDFTLTISSLQPEDFATYYCLQGQSYPYTFGGGTKLEIK and report it.
[reply] 1900

[ask] I'd like to know its Fluorescence intensity (12.5 nM) (RLU), PathHunter. The binder in question is mouse parent antibody IGF11-16 (antibody, mouse IgG1, kappa, V domains shown) VH: QIQLQQPGAELVKPGASVKLSCKAPGYTFTSYWMHWVKQRPGQGLEWIGETNPSNSVTNYNEKFKSKATLTVDKSSSTAYMQLSSLTSEDSAVYYCTIGRGRGFAYWGQGTLVTVSA VL: DIQMNQSPSSLSASLGDTITITCRASQNINFWLSWCQQKPGNIPKLLIYKASNLHTGVPSRFSGSGSGTDFTLTISSLQPEDIATYYCLQGQSYPYTFGGGTKLEIKR
[reply] 2730

[ask] GET /values?readout=Fluorescence intensity (12.5 nM) (RLU), PathHunter&item= FW1_var1 antibody (antibody, V domains shown) VH: QVQLVQSGAEVKKPGASVKVSCKASGYTFTSYWMHWVRQAPGQGLEWMGETNPSNSVTNYAQKFQGRVTLTVDTSTSTAYMELSSLRSEDTAVYYCTIGRGRGFAYWGQGTLVTVSS VL: DIQMTQSPSSVSASVGDRVTITCRASQNINFWLSWCQQKPGKIPKLLIYKASNLHTGVPSRFSGSGSGTDFTLTISSLQPEDFATYYCLQGQSYPYTFGGGTKLEIK
[reply] 2160

[ask] Query (binder): FW2_var2 antibody (antibody, V domains shown) VH: QVQLVQSGAEVKKPGSSVKVSCKASGYTFTSYWMHWVRQAPGQGLEWMGETNPSNSVTNYAQKFQGRVTLTVDKSTSTAYMELSSLRSEDTAVYYCTIGRGRGFAYWGQGTLVTVSS VL: DIQMTQSPSSLSASVGDRVTITCRASQNINFWLSWYQQKPGKIPKLLIYKASNLHTGVPSRFSGSGSGTDFTLTISSLQPEDVATYYCLQGQSYPYTFGGGTKLEIK ; field requested: Fluorescence intensity (12.5 nM) (RLU), PathHunter
[reply] 1890

[ask] Looking for the measured Fluorescence intensity (12.5 nM) (RLU), PathHunter of FW1_var10 antibody (antibody, V domains shown) VH: QVQLVQSGAEVKKPGASVKVSCKASGYTFTSYWMHWVRQAPGQGLEWMGETNPSNSVTNYAQKFQGRVTLTVDTSTSTAYMELSSLRSEDTATYYCTIGRGRGFAYWGQGTLVTVSS VL: DIQMTQSPSSVSASVGDRVTITCRASQNINFWLSWYQQKPGKAPKLLIYKASNLHTGVPSRFSGSGSGTDFTLTISSLQPEDFATYYCLQGQSYPYTFGGGTKLEIK , can you help?
[reply] 1860

[ask] Can you share its Fluorescence intensity (12.5 nM) (RLU), PathHunter? I mean this binder: FW1_var9 antibody (antibody, V domains shown) VH: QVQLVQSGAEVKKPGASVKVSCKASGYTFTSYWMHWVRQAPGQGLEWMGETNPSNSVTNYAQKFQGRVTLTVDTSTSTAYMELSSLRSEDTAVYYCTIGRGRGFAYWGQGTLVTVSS VL: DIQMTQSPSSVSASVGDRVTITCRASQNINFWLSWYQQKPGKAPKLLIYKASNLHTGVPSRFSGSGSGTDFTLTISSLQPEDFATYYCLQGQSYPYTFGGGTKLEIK
[reply] 2040

All values here come from patent US20250263489A1.
